# reported MIC; entries follow
# Tested on: Klebsiella pneumoniae ATCC 13883
Give a bare numeral; the unit µg/mL is implied.

Solved cases below.
compound: CN1C(=O)CNc2cc(F)c(OCCNC[C@H]3CN(c4cnc5c(n4)NC(=O)CS5)C(=O)O3)nc21
MIC (µg/mL): 0.06
//
compound: CN1C(=O)CNc2cc(F)c(OCCNC[C@@H]3CN(c4cnc5c(n4)NC(=O)CS5)C(=O)O3)nc21
MIC (µg/mL): 0.06
//
compound: [2H]C([2H])([2H])N1C(=O)CNc2ccc(OCCNCC3CN(c4cnc5c(n4)NC(=O)CS5)C(=O)O3)nc21 (stereo in doubt)
MIC (µg/mL): 0.06
//
compound: Cn1c(=O)cnc2ccc(OCCNC[C@@H]3CN(c4cnc5c(n4)NC(=O)CS5)C(=O)O3)nc21
MIC (µg/mL): 0.03
//
compound: Cn1c(=O)ccc2ncc(OCCNC[C@H]3CN(c4cnc5c(n4)NC(=O)CS5)C(=O)O3)nc21 [Compound 2, reference compound]
MIC (µg/mL): 0.03
//
compound: O=C(O)c1cn(C2CC2)c2cc(N3CCNCC3)c(F)cc2c1=O [Ciprofloxacin, reference compound]
MIC (µg/mL): 0.05

// moving on: another record for MIC
Summary: Cn1c(=O)cnc2ccc(OCCNC[C@H]3CN(c4cnc5c(n4)NC(=O)CS5)C(=O)O3)nc21 [Compound 1, reference compound] , Klebsiella pneumoniae ATCC 13883, MIC = 0.03
